// data source = the supplement of paper PMC6763611

Give growth inhibition for every item shown.
Tested on: Plasmodium falciparum NF54
Experiment: growth inhibition relative to untreated control; higher = more inhibition
Details: 1 µM; MM + chorismate end-products (CM screening medium); 72 h

Below are 7 molecules. Give each one its growth inhibition.
1. CCC(Sc1nc2ccccc2o1)C(=O)Nc1nccs1 (stereo unspecified)
2. CC(=O)OCC1OC([S-])C(OC(C)=O)C(OC(C)=O)C1OC(C)=O.CCP(CC)CC.[Au+] (stereo unspecified)
3. CCc1ccc(S(=O)(=O)Nc2cc(CN3CCN(CCC(C)C)CC3)ccc2C)cc1
4. CCN(CC)CCCN1CCN(C(=O)c2cccc(-c3noc(C(F)(F)F)n3)c2)CC1
5. O=C(NCCc1ccn(-c2ccccc2)n1)C1CCCCC1
6. Cc1cccc(Cn2ccc(NC(=O)c3ccc4c(c3)OCO4)n2)c1
7. COC(=O)c1ccc(F)cc1NS(=O)(=O)c1cccc(-c2cnn(Cc3ccccc3)c2)c1

Response line:
66.4%
84.8%
31.6%
86.3%
13.1%
18.2%
33.2%

----------
Tested on: Plasmodium falciparum NF54
Assay: growth inhibition relative to untreated control; higher = more inhibition
Settings: 1 µM; minimal medium (MM); 72 h
measured-parameter: growth inhibition (%)
Answers are plain numbers, in %.

Below are 4 compounds. Give each one its growth inhibition.
1. NS(=O)(=O)c1cccc(-c2ccc3ncc(N4CCOCC4)nc3c2)c1
2. Cc1ccc(Oc2ccc(NC(=O)CNc3ccccc3N3CCCC3=O)cc2)cc1
3. COc1cc(Br)cc2cc(C(=O)Nc3cccc(C(F)(F)F)c3)c(=O)oc12
4. CN(C(=O)c1cc2c(-c3cncnc3)cccc2[nH]1)c1ccccc1

Response line:
1: 71; 2: 87.4; 3: 6.95; 4: 56.4

Below are 2 compounds. Give each one its growth inhibition.
1. Cc1cc(OCC(=O)NCc2ccccc2)c2cc(Br)ccc2n1
2. O=C(NCc1ccoc1)N1CCN(Cc2ccc3c(c2)OCO3)CC1

Response line:
1: 3.05; 2: 6.98

----------
Test system: Plasmodium falciparum NF54
Experiment: growth inhibition relative to untreated control; higher = more inhibition
Settings: 5 µM; MM + chorismate end-products (CM screening medium); 72 h
measured-parameter: growth inhibition (%)
Answers are plain numbers, in %.

COc1ccccc1CNC(=O)c1cc(C2CC2)nc2c1cnn2C(C)C :: 87.1

Below are 2 compounds. Give each one its growth inhibition.
1. Cc1ccc(NC(=O)c2nc[nH]c2C(=O)Nc2nc3ccccc3[nH]2)c(C)c1
2. CCCc1ccc(S(=O)(=O)Nc2ccc(CN3CCN(CC4CC4)CC3)cc2)cc1

Response line:
26.8
66.4

----------
System: Plasmodium falciparum NF54
Experiment: growth inhibition relative to untreated control; higher = more inhibition
Conditions: 5 µM; MM + chorismate end-products (CM screening medium); 72 h
measured-parameter: growth inhibition

CN1CCN(c2nccc3[nH]c(-c4cccc(F)c4)cc23)CC1 :: 99%
CCCn1c(CNc2ccccc2O)nc2ccccc21 :: 12.5%
O=C(N[C@H](Cc1ccccc1)C(=O)Nc1ccccc1N1CCOCC1)c1cccs1 :: 47.7%
CC(=O)OCC1OC([S-])C(OC(C)=O)C(OC(C)=O)C1OC(C)=O.CCP(CC)CC.[Au+] (stereo unspecified) :: 87.8%
CCc1nc2ccccc2n1CC(O)COc1cc(C)ccc1Cl (stereo unspecified) :: 98.5%

Below are 5 compounds. Give each one its growth inhibition.
1. COc1ccc(N(CCc2cccc(C)n2)C(C)=O)cc1
2. CCOC(=O)c1c(NC(=O)c2c(F)c(F)c(F)c(F)c2F)sc(C(N)=O)c1C
3. Cc1cc(C)n2nc(C(=O)Nc3cc(C(F)(F)F)ccc3N3CCOCC3)nc2n1
4. Cc1nc(-c2ccccn2)nc(N(C)CCc2ccccc2)c1Cl
5. CC(=O)N(CCN(C(=O)c1ccc(F)cc1)c1ccccc1)c1ccccc1

Response line:
< 0%
14.8%
75.9%
82.9%
20.2%

So the reported growth inhibition for CC(C)C(NC(=O)Cc1cccc2ccccc12)C(=O)Nc1cccc(C#N)c1 (stereo unspecified) , on Plasmodium falciparum NF54, turned out to be 79.3%

----------
System: Plasmodium falciparum NF54
Assay: growth inhibition relative to untreated control; higher = more inhibition
Conditions: 5 µM; MM + chorismate end-products (CM screening medium); 72 h
Short version: growth inhibition at least 70% is 1, less is -1.

Prompt line: Test whether the compound `CC(C)(C)[C@H]1CC[C@H](CC2=C(O)C(=O)c3ccccc3C2=O)CC1` records growth inhibition of 70% or higher.
Response line: 1

Prompt line: Test whether the compound `c1ccc(Oc2ccc(-c3cc(N4CCNCC4)[nH]n3)cc2)cc1` records growth inhibition of 70% or higher.
Response line: -1

----------
Test system: Plasmodium falciparum NF54
Assay: growth inhibition relative to untreated control; higher = more inhibition
Conditions: 5 µM; minimal medium (MM); 72 h
measured-parameter: growth inhibition (%)
One number for each entry, in %.

CC(C)(C)[C@H]1CC[C@H](CC2=C(O)C(=O)c3ccccc3C2=O)CC1 :: 93.4
COc1cc(C2=NCCN2)ccc1-c1cn(-c2cccc(C3=NCCN3)c2)nn1 :: 88.7
Cc1ccc(S(=O)(=O)N2CCN(C(=O)c3cc(-c4ccccc4)n[nH]3)CC2)cc1 :: 88.6

Below are 4 compounds. Give each one its growth inhibition.
1. O=C(C1CCN(c2nnc(-n3cccc3)s2)CC1)N1CCC(Cc2ccccc2)CC1
2. CC1=Nc2ccc(Cl)cc2C(c2ccccc2)N1CCNC(=O)CN(C)C (configuration not stated)
3. COC(=O)c1c(NC(=O)c2cc3ccccc3oc2=O)sc2c1CCN(Cc1ccccc1)C2
4. CC(C)(CN)c1nc(-c2ccc(Cl)c(O)c2)c(-c2ccnc(N)n2)[nH]1

Response line:
8.81
89.7
1.3
6.08

----------
Test system: Plasmodium falciparum NF54
Experiment: growth inhibition relative to untreated control; higher = more inhibition
Conditions: 5 µM; MM + chorismate end-products (CM screening medium); 72 h
Give growth inhibition for every item shown.
Numbers only, in %.

Some compounds with recorded growth inhibition:
COC(=O)Nc1nc2cc(C(=O)c3ccccc3)ccc2[nH]1 :: 5.63
C[C@]1(O)C[C@@H](c2nc(-c3ccc4ccc(-c5ccccc5)nc4c3)c3c(N)nccn32)C1 :: 53.2
CCN(CC)S(=O)(=O)c1ccc(Cl)c(C(=O)Nc2ccc3nc(C)sc3c2)c1 :: 91.3

Please examine the following record next.
Sure, the documented growth inhibition for `CC(C)(C)OC(=O)N1CCC(Cn2nc(-c3cnc4ccccc4c3)c3c(N)ncnc32)CC1` is 64.1

----------
Test system: Plasmodium falciparum NF54
Assay: growth inhibition relative to untreated control; higher = more inhibition
Details: 5 µM; minimal medium (MM); 72 h
Give growth inhibition for every item shown.
Give bare numbers, in %.

Some compounds with recorded growth inhibition:
COc1cccc2c(C)nc(N=C(N)N)nc12 :: 89.2
CN1CCN(S(=O)(=O)c2ccc(-c3ccc4c(Nc5ncc(Cl)cn5)ccnc4c3)cc2)CC1 :: 88.6
Cc1ccc2c(c1C)NC(=O)C21NN=C(c2ccccc2)S1 (stereo not given) :: 89.8
Cc1cc(NCCc2ccccc2)nc(NC(=N)Nc2ccc(Cl)cc2)n1 :: 93.7
COc1ccc(C2=NN(C3CCCCCC3)C(=O)[C@@H]3CC=CC[C@H]23)cc1OCCCCOc1ccc(-c2nnn[nH]2)cc1 :: 48.6
CCCCc1ccc(NC(=O)Nc2ccc(O[C@H]3CCCC[C@@H]3N(C)c3ccccc3)c(F)c2)cc1 :: 85.4

Below are 2 compounds. Give each one its growth inhibition.
1. Cc1nn2c(O)c3c(nc2c1-c1ccc(F)cc1)CCCC3
2. CCN(CC)S(=O)(=O)c1ccc(Cl)c(C(=O)Nc2ccc3nc(C)sc3c2)c1

Response line:
1: 24.6; 2: 94.1

----------
Give growth inhibition for every item shown.
Tested on: Plasmodium falciparum NF54
Assay: growth inhibition relative to untreated control; higher = more inhibition
Settings: 5 µM; minimal medium (MM); 72 h
Numbers only, in %.

Cc1ccc2[nH]c(C3CCCNC3)c(-c3ccncc3)c2c1 (stereo unspecified) :: 97.4
Cc1c[nH]c(CCNC(=O)c2cc(-c3ccc(Cl)cc3)cs2)n1 :: 94.7

Below are 2 compounds. Give each one its growth inhibition.
1. CC(C)/N=c1\cc2n(-c3ccc(Cl)cc3)c3ccccc3nc-2cc1Nc1ccc(Cl)cc1
2. O=C(NCc1cc(Cl)cc(Cl)c1)c1c(C(F)(F)F)nc2ccccn12

Response line:
[94.1, 9.63]

----------
Give growth inhibition for every item shown.
System: Plasmodium falciparum NF54
Experiment: growth inhibition relative to untreated control; higher = more inhibition
Settings: 1 µM; MM + chorismate end-products (CM screening medium); 72 h
Numbers only, in %.

Some molecules with recorded growth inhibition:
Nc1nc2cc(-c3cncc(Oc4ccc(F)cc4)c3)ccc2[nH]1 :: 76.1
Cc1ccccc1C(=O)N1N=C(Nc2ccccc2)SC1(C)C :: 49.8
O=C(c1cc2ccccc2o1)N1CCN(Cc2ccc3c(c2)OCO3)CC1 :: 15.1
COCC(C)NC(=O)CSc1ncnc2sc(-c3ccccc3)cc12 (stereo unspecified) :: 11.3
COc1cc(Br)cc2cc(C(=O)Nc3cccc(C(F)(F)F)c3)c(=O)oc12 :: 11.9
CCCNC(=O)N1CCC2(CC1)CC(=O)c1cc(C)ccc1O2 :: 72.5
CCOc1ccccc1NC(C)C(=O)Nc1cc(C(F)(F)F)ccc1N1CCOCC1 (stereo unspecified) :: 76

Sure, the documented growth inhibition for `O=C(Nc1nc(-c2ccccn2)cs1)c1cncn1-c1ccccc1` is 25.9
